Where these numbers come from: patent US7101878B1

target.or.test.system: human GnRH receptor (Homo sapiens)
Construct: expressed in transfected cells; host or cells: HEK 293 (hGnRH-R/293, from Dr. Stuart Sealfon)
Sequence (P30968 1-328): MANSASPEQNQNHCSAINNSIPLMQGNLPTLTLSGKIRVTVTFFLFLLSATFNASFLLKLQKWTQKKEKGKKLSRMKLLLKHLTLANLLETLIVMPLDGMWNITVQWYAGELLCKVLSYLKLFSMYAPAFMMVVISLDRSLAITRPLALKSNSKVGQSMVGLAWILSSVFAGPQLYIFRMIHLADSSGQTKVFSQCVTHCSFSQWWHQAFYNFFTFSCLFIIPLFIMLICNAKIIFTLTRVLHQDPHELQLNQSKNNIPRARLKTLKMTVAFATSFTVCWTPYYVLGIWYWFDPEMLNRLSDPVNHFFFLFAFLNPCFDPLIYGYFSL
method.summary: Radioligand binding, 125I-GnRH-A displacement, membranes of HEK 293 cells with human GnRH receptor
test.conditions: means ± SE of at least three experiments performed in duplicate; read-out: Human IC50
Where a SMILES comes first, the peptide text is derived from it. [ ]: non-standard residue; d: D form. The star is where a group is joined. dPhe(4-Cl) = N[C@H](Cc1ccc(Cl)cc1)C(=O)O; d2Nal = N[C@H](Cc1ccc2ccccc2c1)C(=O)O; Lys(iPr) = CC(C)NCCCC[C@H](N)C(=O)O; d3Pal = N[C@H](Cc1cccnc1)C(=O)O; Nicotinoyl = O=C(c1cccnc1)*
Measured pIC50 accompanies every entry in the list below.
The scale used: pIC50 is minus the common logarithm of the concentration in molar units.

Complete the entry with pIC50 for `Cc1cnc(CNC(=O)c2ccc(Cc3cc4c(cc3C)C(C)(C)CCC4(C)C)o2)cn1` 6.96

Complete the entry with pIC50 for CC(=O)N[C@H](Cc1ccc2ccccc2c1)C(=O)N[C@H](Cc1ccc(Cl)cc1)C(=O)N[C@H](Cc1cccnc1)C(=O)N[C@@H](CO)C(=O)N[C@@H](CCCCNC(=O)c1cccnc1)C(=O)N[C@H](CCCCNC(=O)c1cccnc1)C(=O)N[C@@H](CC(C)C)C(=O)N[C@@H](CCCCNC(C)C)C(=O)N1CCC[C@H]1C(=O)N[C@H](C)C(N)=O [Antide, reference compound] (Ac-[d2Nal][dPhe(4-Cl)][d3Pal]SK(Nicotinoyl)[dK](Nicotinoyl)L[Lys(iPr)]P[dA]-NH2) 9.17

Complete the entry with pIC50 for `COc1cccc(CNC(=O)c2ccc(Cc3cc4c(cc3C)C(C)(C)CCC4(C)C)o2)c1OC` 7.00

Complete the entry with pIC50 for `Cc1cc2c(cc1Cc1ccc(C(=O)NC[C@H]3CC[C@H](CNC(=N)N)CC3)o1)C(C)(C)CCC2(C)C` 6.89

Complete the entry with pIC50 for Cc1cc2c(cc1Cc1ccc(C(=O)NCC3CCC(CNC(=N)N)CC3)o1)C(C)(C)CCC2(C)C (stereo not shown) 6.66

Next:
Complete the entry with pIC50 for `Cc1ccc(CNC(=O)c2ccc(Cc3cc4c(cc3C)C(C)(C)CCC4(C)C)o2)cc1` 7.10

Complete the entry with pIC50 for `COc1cccc(OC)c1NC(=O)c1ccc(Cc2cc3c(cc2C)C(C)(C)CCC3(C)C)o1` 8.10

----------
target.or.test.system: human GnRH receptor (Homo sapiens)
Construct: expressed in transfected cells; host or cells: HEK 293 (hGnRH-R/293, from Dr. Stuart Sealfon)
method.summary: Radioligand binding, 125I-GnRH-A displacement, membranes of HEK 293 cells with human GnRH receptor
test.conditions: repeat of % Inhib. at 1 uM
reported.property: Repeats @ 1 uM hGnRH
Would you mind answering with just the numeric figure?

Here are 3 compounds together with their reported answers.
Complete the entry with Repeats @ 1 uM hGnRH for Cc1cc2c(cc1Cc1ccc(C(=O)NCCc3c[nH]cn3)o1)C(C)(C)CCC2(C)C [drawing 1051] 36

Complete the entry with Repeats @ 1 uM hGnRH for Cc1cc2c(cc1Cc1ccc(C(=O)NCc3nc4ccccc4[nH]3)o1)C(C)(C)CCC2(C)C [drawing 1060] 99

Complete the entry with Repeats @ 1 uM hGnRH for Cc1cc2c(cc1Cc1ccc(C(=O)NC(CO)Cc3ccccc3)o1)C(C)(C)CCC2(C)C (stereo not shown) [drawing 1117] 72

Now for the compound whose Repeats @ 1 uM hGnRH we want.
Complete the entry with Repeats @ 1 uM hGnRH for Cc1cc2c(cc1Cc1ccc(C(=O)NC(c3ccccc3)C(O)c3ccccc3)o1)C(C)(C)CCC2(C)C (stereo not shown) [drawing 1073] −8
